# TEST_SYSTEM: ScAbp1
# ASSAY_INFO: SPOT peptide array binding signal intensity (averaged, normalized) (arbitrary units (background-subtracted, floor 0; scale differs between SH3 domains)); higher = stronger binding of the SH3 domain to the peptide
REPORTED_PROPERTY: SPOT peptide array binding signal intensity

- BINDER: "SRSKPLPLTPNSKYN"
  BOUND_OPERATOR: "="
  RESULT_NUMBER: 332
- BINDER: "IVNKPLPPLPVAGSS"
  BOUND_OPERATOR: "="
  RESULT_NUMBER: 378
- BINDER: "ALKQKKIPPPFKPHL"
  BOUND_OPERATOR: "="
  RESULT_NUMBER: 29
- BINDER: "SSSSTPPTLPPRRIE"
  BOUND_OPERATOR: "≤"
  RESULT_NUMBER: 0
- BINDER: "QPQRTAPKPPISAPR"
  BOUND_OPERATOR: "="
  RESULT_NUMBER: 8
- BINDER: "PPIPIVPSSPAPPLP"
  BOUND_OPERATOR: "≤"
  RESULT_NUMBER: 0
- BINDER: "SKSRLLIELPEGFFT"
  BOUND_OPERATOR: "≤"
  RESULT_NUMBER: 0
- BINDER: "YVRRRPRVRLEPLLS"
  BOUND_OPERATOR: "="
  RESULT_NUMBER: 128
- BINDER: "YHSRRHPLALGFKYV"
  BOUND_OPERATOR: "="
  RESULT_NUMBER: 54
- BINDER: "TSIEIPKRSPLRFTS"
  BOUND_OPERATOR: "="
  RESULT_NUMBER: 21
- BINDER: "VRTRRRPPPPPIPST"
  BOUND_OPERATOR: "="
  RESULT_NUMBER: 19
- BINDER: "ISNFVPPNLPMRRFK"
  BOUND_OPERATOR: "="
  RESULT_NUMBER: 44
- BINDER: "QFDLKMPSKPIHNLK"
  BOUND_OPERATOR: "≤"
  RESULT_NUMBER: 0
- BINDER: "VPPPMQPPPIESSNL"
  BOUND_OPERATOR: "≤"
  RESULT_NUMBER: 0
- BINDER: "RMVRRRPLRVQFSAR"
  BOUND_OPERATOR: "="
  RESULT_NUMBER: 188
- BINDER: "PPPPPPPPPPPLPQS"
  BOUND_OPERATOR: "≤"
  RESULT_NUMBER: 0
- BINDER: "SHRLWLYAAPKRPKT"
  BOUND_OPERATOR: "="
  RESULT_NUMBER: 41
- BINDER: "RAPPPVPKKPSSRIA"
  BOUND_OPERATOR: "="
  RESULT_NUMBER: 2860
- BINDER: "NQARKPFLLPATELS"
  BOUND_OPERATOR: "="
  RESULT_NUMBER: 59.5
- BINDER: "PPLPRAPPVPPATFE"
  BOUND_OPERATOR: "="
  RESULT_NUMBER: 4.5
- BINDER: "KWVRRPKLMTPLTFS"
  BOUND_OPERATOR: "="
  RESULT_NUMBER: 103
- BINDER: "MFLISPPASPPPEFD"
  BOUND_OPERATOR: "="
  RESULT_NUMBER: 5.5
- BINDER: "LFMKGTPEFPKSGFS"
  BOUND_OPERATOR: "="
  RESULT_NUMBER: 6.5
- BINDER: "RSRRSSFAYPQQVAI"
  BOUND_OPERATOR: "="
  RESULT_NUMBER: 27.5
- BINDER: "GPPPPLPPPLFPSSS"
  BOUND_OPERATOR: "≤"
  RESULT_NUMBER: 0
- BINDER: "PPPPPPPPPPLPQSL"
  BOUND_OPERATOR: "="
  RESULT_NUMBER: 1
- BINDER: "VKPRQLFPIPLNKVD"
  BOUND_OPERATOR: "="
  RESULT_NUMBER: 71
- BINDER: "YRRKSIPFAPHQITA"
  BOUND_OPERATOR: "="
  RESULT_NUMBER: 53
- BINDER: "LRWRHKFFLPAIAAI"
  BOUND_OPERATOR: "="
  RESULT_NUMBER: 53.5
- BINDER: "GDHPKGPPPPPPPDE"
  BOUND_OPERATOR: "≤"
  RESULT_NUMBER: 0

Just for reference, the supplement of paper PMC4466140 is where these values come from.
